Where do the numbers come from? From patent US20230105029A1.

# tested-on: T1, recombinant human IL4Rα-his protein (in house made) (human, UniProt P24394 26-232, limits assumed)
# T1 construct: also called Human IL4Ra-his
# method-notes: SPR (Biacore), antibody captured, IL4Rα-his flowed
readout-name: Kd

Take each entry in turn and give its Kd.
1. huC2C1A1A1-V3 (antibody, human IgG4, V domains shown, Humanized, human IgG4/kappa) VH: EVQLVESGGGLVQPGGSLRLSCAASGFTFSTYGMSWVRQAPGKGLVWVSTINSNGGSTSYPDSVKGRFTISRDNAKNTLYLQMNSLRAEDTAVYYCARFFRFRNAMDYWGQGTLVTVSS VL: DIQMTQSPSSLSASVGDRVTITCRTSENIYSYLAWYQQKPGKAPKFLVYNAKTLAEGVPSRFSGSGSGTDFTLTISSLQPEDFATYYCQHYYGPPTWTFGQGTKVEIKR
2. huC2C1A1A1-V4 (antibody, human IgG4 S228P, kappa, V domains shown, Humanized, human IgG4/kappa) VH: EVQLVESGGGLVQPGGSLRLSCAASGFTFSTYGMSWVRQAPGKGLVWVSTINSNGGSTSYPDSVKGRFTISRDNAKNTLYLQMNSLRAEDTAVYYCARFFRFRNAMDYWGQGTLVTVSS VL: DIQMTQSPSSLSASVGDRVTITCRTSENIYSYLAWYQQKPGKAPKFLIYNAKTLAEGVPSRFSGSGSGTDFTLTISSLQPEDFATYYCQHYYGPPTWTFGQGTKVEIKR
3. huC2C1A1A1-V12 (antibody, human IgG4 S228P, kappa, V domains shown, Humanized, human IgG4/kappa) VH: EVQLVESGGGLVQPGGSLRLSCAASGFTFSTYGMSWVRQAPGKGLVLVATINSNGGSTSYPDSVKGRFTISRDNAKNTLYLQMNSLRAEDTAVYYCARFFRFRNAMDYWGQGTLVTVSS VL: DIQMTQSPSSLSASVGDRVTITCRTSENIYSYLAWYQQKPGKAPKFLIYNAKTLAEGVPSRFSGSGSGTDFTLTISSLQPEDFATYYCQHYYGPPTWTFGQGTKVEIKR

1: < 0.0389 nM; 2: < 0.022 nM; 3: 0.047 nM
